# targetOrTestSystem: T1, M7-2
# T1 construct: also called PD1 mutant M7-2
# experimentDescription: scFv-phage ELISA
OD490 less than 3 is Fulfilled; OD490 greater than or equal to 3 is Not fulfilled.

[
  {
    "binder": "PD1-51D9 (antibody, V domains shown, scFv-phage in the screening ELISA; whole IgG in the other assays) VH: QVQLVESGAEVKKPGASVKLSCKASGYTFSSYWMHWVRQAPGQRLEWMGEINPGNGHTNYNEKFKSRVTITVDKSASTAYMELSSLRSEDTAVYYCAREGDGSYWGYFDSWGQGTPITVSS VL: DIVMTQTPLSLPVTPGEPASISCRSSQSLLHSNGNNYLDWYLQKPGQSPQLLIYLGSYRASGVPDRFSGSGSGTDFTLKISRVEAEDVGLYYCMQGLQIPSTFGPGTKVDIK",
    "groupLabel": "Fulfilled"
  }
]

Given the entry PD1-42G4 (antibody, V domains shown, scFv-phage in the screening ELISA; later whole IgG) VH: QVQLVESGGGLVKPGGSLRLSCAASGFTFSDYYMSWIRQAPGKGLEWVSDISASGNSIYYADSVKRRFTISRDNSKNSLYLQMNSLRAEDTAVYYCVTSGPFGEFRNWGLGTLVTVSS VL: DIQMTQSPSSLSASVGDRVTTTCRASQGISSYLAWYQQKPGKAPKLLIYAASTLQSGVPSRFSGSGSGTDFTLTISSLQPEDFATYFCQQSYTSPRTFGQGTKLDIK , would its reported OD490 be below 3?
Fulfilled

Given the entry PD1-49B9 (antibody, V domains shown, scFv-phage in the screening ELISA; later whole IgG) VH: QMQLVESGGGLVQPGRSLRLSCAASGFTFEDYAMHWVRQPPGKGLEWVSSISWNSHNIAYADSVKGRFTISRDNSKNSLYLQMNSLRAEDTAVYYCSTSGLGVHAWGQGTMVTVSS VL: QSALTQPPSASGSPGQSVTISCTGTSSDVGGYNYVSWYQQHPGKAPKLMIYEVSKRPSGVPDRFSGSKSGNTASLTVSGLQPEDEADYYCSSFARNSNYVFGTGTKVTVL , would its reported OD490 be below 3?
Not fulfilled

Given the entry PD1-45F4 (antibody, V domains shown, scFv-phage in the screening ELISA; later whole IgG) VH: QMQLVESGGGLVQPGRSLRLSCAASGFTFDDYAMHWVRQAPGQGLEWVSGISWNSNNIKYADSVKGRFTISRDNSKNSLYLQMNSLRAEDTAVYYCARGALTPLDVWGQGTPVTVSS VL: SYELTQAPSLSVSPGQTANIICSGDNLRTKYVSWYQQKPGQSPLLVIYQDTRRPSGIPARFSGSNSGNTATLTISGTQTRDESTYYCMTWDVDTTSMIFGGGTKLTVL , would its reported OD490 be below 3?
Not fulfilled

Given the entry PD1-32A6 (antibody, V domains shown, scFv-phage in the screening ELISA; later whole IgG) VH: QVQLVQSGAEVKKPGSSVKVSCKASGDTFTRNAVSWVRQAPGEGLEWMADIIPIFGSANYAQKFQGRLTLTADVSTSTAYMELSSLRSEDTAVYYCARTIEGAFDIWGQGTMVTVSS VL: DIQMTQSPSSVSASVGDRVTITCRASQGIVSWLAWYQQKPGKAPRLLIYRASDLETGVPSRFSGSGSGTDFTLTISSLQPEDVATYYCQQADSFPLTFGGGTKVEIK , would its reported OD490 be below 3?
Fulfilled
